Ref: ChEMBL document CHEMBL1145498

The next entries give measured ΔTm for 3-phosphoinositide-dependent protein kinase 1 (Homo sapiens) (UniProt O15530).
recorded metric: ΔTm (°C)

NC1=N/C(=C2/CCNC(=O)c3[nH]ccc32)C(=O)N1 [DEBROMOHYMENIALDISINE] :: 0
COc1nccc(-c2c(-c3ccc(F)cc3)ncn2[C@H]2CC[C@H](O)CC2)n1 :: 0
COc1ccc(Cl)cc1NC(=O)Nc1cc(C)nc2ccccc12 :: 3
O=C(O)/C=C/c1cc(CO)ccc1CO :: 0
CCOc1cc(/C=C(\C#N)C(N)=O)cc(CSc2ccccc2)c1O :: 0
COc1cc(OC)c(/C=C2\C(=O)Nc3ccccc32)c(OC)c1 :: -0.1
O=c1c(O)c(-c2ccc(O)c(O)c2)oc2cc(O)cc(O)c12 [QUERCETIN] :: 1.1
CN(C)c1ncnc2nc[nH]c12 [DIMETHYLADENINE] :: 0.1
Cc1cc2ncc(-c3ccccc3)nc2cc1C :: -0.1
Nc1n[nH]c2nnc(-c3c(-c4ccccc4)nn4ccccc34)cc12 :: 1
Brc1c(Br)c(Br)c2[nH]nnc2c1Br [TETRABROMOBENZOTRIAZOLE] :: -4.4
